# tested-system: hAR (human androgen receptor, baculovirus/Sf9 generated extracts) (Homo sapiens, UniProt P10275)
# Construct: made in house; host or cells: baculovirus/Sf9 insect cells (crude extract)
# Sequence (P10275 whole entry): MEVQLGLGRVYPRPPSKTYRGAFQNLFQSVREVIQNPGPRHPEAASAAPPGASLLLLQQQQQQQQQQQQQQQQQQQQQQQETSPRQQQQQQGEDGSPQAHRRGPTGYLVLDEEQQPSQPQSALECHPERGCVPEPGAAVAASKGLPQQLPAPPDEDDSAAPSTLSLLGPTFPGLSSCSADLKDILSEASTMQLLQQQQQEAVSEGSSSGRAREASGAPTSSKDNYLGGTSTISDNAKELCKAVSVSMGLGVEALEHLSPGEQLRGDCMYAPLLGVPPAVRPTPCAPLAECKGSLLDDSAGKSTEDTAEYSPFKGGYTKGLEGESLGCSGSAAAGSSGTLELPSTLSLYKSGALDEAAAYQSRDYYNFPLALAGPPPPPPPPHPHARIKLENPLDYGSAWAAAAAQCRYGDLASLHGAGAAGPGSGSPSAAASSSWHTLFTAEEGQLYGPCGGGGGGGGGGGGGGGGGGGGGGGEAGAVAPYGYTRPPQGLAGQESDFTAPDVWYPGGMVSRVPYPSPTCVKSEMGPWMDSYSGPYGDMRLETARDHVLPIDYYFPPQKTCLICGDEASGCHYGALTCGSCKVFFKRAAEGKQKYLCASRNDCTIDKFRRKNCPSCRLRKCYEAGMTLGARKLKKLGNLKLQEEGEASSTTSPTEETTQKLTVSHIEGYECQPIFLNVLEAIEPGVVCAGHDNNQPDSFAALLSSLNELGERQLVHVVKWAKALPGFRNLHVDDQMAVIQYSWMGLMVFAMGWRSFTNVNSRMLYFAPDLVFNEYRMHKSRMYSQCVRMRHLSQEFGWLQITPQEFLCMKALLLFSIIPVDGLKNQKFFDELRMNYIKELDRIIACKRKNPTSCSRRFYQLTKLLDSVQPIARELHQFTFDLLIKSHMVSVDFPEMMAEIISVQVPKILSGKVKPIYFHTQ
# assay-procedure: AR Binding Assay (competitive binding with 3H-DHT tracer)
# condition-description: AR Binding IC50, hAR extract, 1 nM 3H-DHT, one hour at 4° C.; mean of multiple tests
Provide the recorded pIC50 for the entries that follow.
Give only the number. pIC50 is defined as minus log10 of concentration in molar units.

Consider the compound shown here: CC(Oc1ccc(C#N)c(C(F)(F)F)c1)c1ccc(F)cc1 (stereo not drawn) What is its recorded pIC50?
6.86

Here is the next compound: CCC(Oc1ccc(C#N)c(C(F)(F)F)c1)c1ccccc1 (stereo not drawn)
7.42

Next compound up: CC(Oc1ccc(C#N)c(C(F)(F)F)c1)c1cccc(C#N)c1 (single isomer, unassigned) [Example 78]
7.43

Repeat with CCCC(Oc1ccc(C#N)c(C(F)(F)F)c1)c1cncc(O)c1 (stereo not drawn)
7.17

Please answer likewise for COCCOCOc1cncc(C(CC(C)C)Oc2ccc(C#N)c(C(F)(F)F)c2)c1 (stereo not drawn)
7.01

Cool, now "CC(C)(Oc1ccc(C#N)c(Cl)c1)c1ccccc1"
7.28

Repeat for the following compound: CC(Oc1ccc(C#N)c(C(F)(F)F)c1)c1cccc(C#N)c1 (stereo not drawn) [Example 30]
7.66

Now give it for Cc1cccc(C(C)Oc2ccc(C#N)c(C(F)(F)F)c2)c1 (stereo not drawn) [Example 28] too.
7.30

Okay, and CCCC(Oc1ccc(C#N)c(C(F)(F)F)c1)c1cccc(O)c1 (racemic) [Example 14] ?
7.74
